Procedure details: yeast display, Sf9 membrane polyspecificity reagent, FACS + sequencing; frameworks hold sequencing errors
Quantity measured: polyreactivity (PSR sort gate)

{"Biosequence": "QVQLVESGGGLVQAGGSLRLSCAASGFTFRVYAMGWYRQAPGKERELVASITWSGASTYYADSVKGRFTISRDNAKNTVYLQMNSLKPEDTAVYYCAAKYSDYQYGRYYYWGQGTQVTVSS", "Endpoint value": "high polyreactivity"}
{"Biosequence": "QVQLVESGGGLVQAGGSLRLSCAASGSTFGPYAMGWYRQAPGKERELVAAITSSGGTTYYADSVKGRFTISRDNAKNTVYLQMNSLKPEDTAVYYCNTRRHGWKGVAYDYWGQGTQVTVSS", "Endpoint value": "low polyreactivity"}
{"Biosequence": "QVQLVESGVGLVQAGGSLRLSCGASGSIFVANVMGWYRQAPGKEREFVATISWNGGNTYYADSVKGRFTISRDNAKNTVYLQMNSLKPEDTAVYYCAAEPLTPSRDRVPYEYYYWGQGTQVTVSS", "Endpoint value": "high polyreactivity"}
{"Biosequence": "QVQLVESGGGLVQAGGSLRLSCAASGRTFLYYAMGWYRQAPGKERELVAAIRRGSSTYYADSVKGRFTISRDNAKNTVYLQMNSLKPEDTAVYYCNKVYYAFRVSLYRYGYWGQGTQVTVSS", "Endpoint value": "high polyreactivity"}
{"Biosequence": "QVQLVDSVGGLVQAGGSLRLSCAASGSIFWTYAMGWYRQAPGKERELVATITYSDGNTYYADSVKGRFTISRDNAKNTVYLQMHSLKPEDTAVYYCNADGIYASISGYRYDYWGQGTQVTVSS", "Endpoint value": "low polyreactivity"}

Query string: Could you share which polyreactivity (PSR sort gate) value was measured for `QVQLVESGGGLVQAGGSLRLRGAASGSIFVYYAMGWYRPAPGKERELVASISESDGSTSYADSVKGRFTISRDNAKNTVYLQMNSLKPEDTAVYYCAADPYFYWYSPSFDYWGQGTQVTVSS` ?
Result string: low polyreactivity

* * *

Procedure details: yeast display, Sf9 membrane polyspecificity reagent, FACS + sequencing; frameworks hold sequencing errors
Quantity measured: polyreactivity (PSR sort gate)

Solved cases below.
{"Biosequence": "QVQLVESGGGLVQAGGSLRLSCAASGSTFDIYAMGWYRQAPGKERELVAVISGGDGSTYYADSVKGRFTISRDNAKNTVYLQMNSLKPEDTAVYYCAADYISPGYCDGEYDCWGQGTQVTVSS", "polyreactivity (PSR sort gate)": "low polyreactivity"}
{"Biosequence": "HAQLQESGGGLVQAGGSLRRSCAASGSIFRFSRMGWYRRAPGKERELVASIGFGSITYYADRVKGRFTISRDNANNTVYLQMNSLKPEDTAVYYCAVQVQDESWLDYWGQGTQVTVSC", "polyreactivity (PSR sort gate)": "low polyreactivity"}
{"Biosequence": "QVQLVESGGGLVQAGGSLRLSCAASGSILIGNAMGWYRQAPGKERELVAAIRSGGSTNYADSVKGRFTISRDNAKNTVYLHMNSLKPEDTAVYYCARDVYVYYPYYAYDYWGQGTQVTVSS", "polyreactivity (PSR sort gate)": "low polyreactivity"}
{"Biosequence": "QVQLVESGGGLVQAGGSLRLSCAASGSIISYYAMGWYRQAPGKERELVAAISRGGGRTYYADSVKGRFTISRDNAKNTVYLQMNSLKPEDTAVYYCAVTPVRFASGGAWMDYWGQGTQVTVSS", "polyreactivity (PSR sort gate)": "high polyreactivity"}

Query string: Which value of polyreactivity (PSR sort gate) has been reported for `QVQLVESGGGLVQAGGSLRLSCAASGFIFSGYAMGWYRQAPGKERELVAAITRSGSRTYYADSVKGRFTISRDNAKNTVYLQMNSLKPEDTAVYYCAKDKPKYGISTMDYWGQGTQVTVSS` in the records?
Result string: high polyreactivity

* * *

Procedure details: yeast display, Sf9 membrane polyspecificity reagent, FACS + sequencing; frameworks hold sequencing errors
Quantity measured: polyreactivity (PSR sort gate)

Illustrative cases are given below, each with its answer.
{"Biosequence": "QVQIVESGGGLLQAGGSLRLSCAASGRIFRRNAMGWYRQATGKERELVAAISKSGGSTYYADSVKGRFTISRDNAKNTVYLQMNSLKPEDTAVYYCAAEYSDRYDYWGQGTQVTVSS", "polyreactivity (PSR sort gate)": "high polyreactivity"}
{"Biosequence": "QVQLVESGGGLVQAGGSLRLSCAASGGIFSWYAMGWYRQAPGKERELVAAISWSGSRTYYADSVKGRFTISRDNAKNTVYLQMNCLKPEDTAVYYCAADYIFRRYPVGGIYDYDYWGQGTQVTVSS", "polyreactivity (PSR sort gate)": "high polyreactivity"}
{"Biosequence": "QVQLVDSGGGLVQAGGSLRLSCAASGFTFYAYGRGWNRQAPGKERELVATITWCGGNTYYADSVKGRFTISRDNAKNTVYLQMNSLKPEDTAVYYCAARLPSPIRPSRGYYDYWGQGTQVTVSS", "polyreactivity (PSR sort gate)": "low polyreactivity"}
{"Biosequence": "QVQLVESGGGLVQAGGSLRLSCAASGRIFYPYAMGWYRQAPGKERELVAAISARGGSTYYADSVKGRFTISRDNAKNTVYLQMNSLKPEDTAVYYCATYTYRGVAEMDYWGQGTQVTVSS", "polyreactivity (PSR sort gate)": "high polyreactivity"}
{"Biosequence": "QVQLVESGGGLVQAGGSLRLSCAASGIIFDGNAMGWYRQAPGKERELVAAISSGGSTNYADSVKGRFTISRDNAKNTVYLQMNSLKPEDTAVYYCAARYTGKYEREYIYWGQGTQVTVSS", "polyreactivity (PSR sort gate)": "high polyreactivity"}

Query string: Give the measured polyreactivity (PSR sort gate) of `QVQLVESGGGLVQAGGSLRLSCAASGRIFKYNAMGWYRQAPGKERELVAAISGTGGSTYYADSVKGRFTISRDNAKNTVYLQMNSLKPEDTAVYYCAARYYIVSLGSGYWGQGTQVTVSS` .
Result string: high polyreactivity

Query string: For the sequence `QVQLVESGGGLVQAGGSLRISCAASGRIFLFYAMGWYRQAPGKEREWVAAITYSGSTYYADSVKGRFTISRDNAKNTVYLQMNSLIPEDTAVYYCNARYRTYAGTYGYNYWGQGTQVTVSS` , what polyreactivity (PSR sort gate) is on record?
Result string: high polyreactivity

Query string: Reported polyreactivity (PSR sort gate), sequence `QVQLVESGGGLVQAGGSLRLSCAASGRTFGVNAMGWYRQAPGKERELVARIRVSGGRTYYADSVKGRFTISRDNAKNTVYLQMNSLKPEDTAVYYCNAGYTYNRVIWPYYYWGQGTQVTVSS` : ____
Result string: high polyreactivity

Query string: polyreactivity (PSR sort gate) for `QVQLVESGGGLDQAGGSLRLSCAASGRTFGGYAMGWYRQAPGKERELVARISRSGGSTYYADSVKGRFTISRDNAKNTVYFQMNSLKPEDTAVYYCNTGLRTAYGWPQDDYWGQGTQVTVSS` ?
Result string: low polyreactivity

* * *

Procedure details: yeast display, Sf9 membrane polyspecificity reagent, FACS + sequencing; frameworks hold sequencing errors
Quantity measured: polyreactivity (PSR sort gate)

Reference set, count: 8
{"Biosequence": "QVQLVESGGGLVQAGGSLRLSCAASGRIFWYYAMGWYRQAAGKERELVAAISSGTTKYADSVKGRFTISRDNAKNTVYLQMNSLKPEDTAVYYCNAAAYYPTNYGGYLFEYWGQGTQVTVSS", "polyreactivity (PSR sort gate)": "low polyreactivity"}
{"Biosequence": "QVQLVESGGGLVQAGCSLRISCAASGITFGRKTMGWSRQAPGKERELVAAIDSGGNTYADSVKGRFTISRDNAKNTVYLQMNSLKPEDTAVYYCAVDGGEFSSYGYWGQGTQVTVSS", "polyreactivity (PSR sort gate)": "low polyreactivity"}
{"Biosequence": "QDHLVESGGGLVQAGCSLRLTCAASGSIFIPNAMGWYRQAPGKERYLVAAIRSGGSSYYADSVKGRFTISRDNAKNTVYLQMNSLKPEDTAVYYCAADTYTYYYYLARYYYWGQGTQVTVSS", "polyreactivity (PSR sort gate)": "low polyreactivity"}
{"Biosequence": "QVQLVESGGGLVQAGGSLRLSCAASGRTLVVYAMGWYRQAPGKERELVADINWSGGRTYYADSVKGRFTISRDNAKNTVYLQMNSLKPEDTAVYYWAADLSWRQYYREYDYWGQGTQVSVSS", "polyreactivity (PSR sort gate)": "high polyreactivity"}
{"Biosequence": "QVQLVESGGGLVQAGGSLRLSCAASGSIFRDYVMGWYRQAPGKERELVAAISGNDGSTYYADSVKGRFTISRDNAKNTVYLQMNSLKPEDTAVYYCNADEASTVPQFYSYLDFDYWGQGTQVTVSS", "polyreactivity (PSR sort gate)": "low polyreactivity"}
{"Biosequence": "QIQLVESGGGLVQAGGSLRLSCAASGSTLPDYAMGWYRQAPGKERELVADITARGGTYYADSVKGRFTISRDNAKNTVYLQMNSLKPEDTAVYYCAARISGRWYEYWGQGTQVTVSS", "polyreactivity (PSR sort gate)": "high polyreactivity"}
{"Biosequence": "QVQRVESGGGLVQAGGSLRLSCAASGSTFYAYAMGWYRQSPGKERELVATITWSGGSTFYADSVKGRFTISRDNAKNTVYLQMNSLKPEDTAVYYCAARSRFPTIADGDYWGQGTQVTVSS", "polyreactivity (PSR sort gate)": "low polyreactivity"}
{"Biosequence": "QVQLVESGGGLVQAGGSLRLSCAASGRTFYDNAMGWYRQAPGNERELVAAITVRGGSTRYADSVKGRFTISRDNAKNTVYLQLNSLKPEDTAVYYCAATQTPYRYHYDYWGQGTQVTVSS", "polyreactivity (PSR sort gate)": "high polyreactivity"}

Query string: Which polyreactivity (PSR sort gate) value is on record for `QVQLVESGGGLVQAGGSLRLSCAASGRIFRWNAMGWYRQAPGKERELVAAISASGGRTYYADSVKGRFTISRDNAKNTVYLQMISLKPEDTAVYYCAAGPVYYYVPIGYDYWGQGTQVTVSS` ?
Result string: high polyreactivity

Data provenance is the nanobody polyreactivity screen of Harvey et al. (2022).
